target: T1, cynomolgus monkey CGRP receptor (cynomolgus monkey, UniProt A0A2K5VQ71 34-472); assay: yeast-displayed Fab, FACS, detergent-solubilized lysate of cynomolgus CGRP receptor/HEK cells vs blank cells
T1 construct: whole, on cells; Presented as detergent-solubilized lysate of HEK cells expressing the cynomolgus receptor; also called Cyno CGRP Receptor; Cynomolgus Monkey CGRP Receptor/HEK detergent-solubilized cell lysate
T1 sequence (A0A2K5VQ71 entry or part of it): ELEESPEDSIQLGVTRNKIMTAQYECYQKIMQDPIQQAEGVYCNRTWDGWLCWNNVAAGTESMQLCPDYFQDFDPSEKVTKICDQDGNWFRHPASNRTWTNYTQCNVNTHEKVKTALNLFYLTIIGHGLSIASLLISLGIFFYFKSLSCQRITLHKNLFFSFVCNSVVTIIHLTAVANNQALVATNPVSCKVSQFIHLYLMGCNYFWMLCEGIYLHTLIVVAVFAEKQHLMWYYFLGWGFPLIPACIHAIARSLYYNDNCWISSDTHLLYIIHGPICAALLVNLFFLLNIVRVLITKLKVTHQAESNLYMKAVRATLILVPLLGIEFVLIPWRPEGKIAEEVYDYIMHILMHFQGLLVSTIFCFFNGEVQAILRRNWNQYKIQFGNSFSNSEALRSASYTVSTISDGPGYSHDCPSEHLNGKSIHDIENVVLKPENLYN
The reader will find reported Cyno CGRP Receptor/Blank Cells Specific Binding values listed item by item below.
Output spec: scalar in ratio, unitless text.

Examples from the recorded data:
Binder | Reported Result
anti-CGRP receptor variant 15, yeast-displayed Fab (Fab, V domains shown, also called Variant Ab ID 15) VH: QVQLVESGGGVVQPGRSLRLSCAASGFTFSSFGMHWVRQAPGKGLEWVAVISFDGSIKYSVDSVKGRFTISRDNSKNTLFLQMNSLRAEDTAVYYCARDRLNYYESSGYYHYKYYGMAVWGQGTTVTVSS VL: QSVLTQPPSVSAAPGQKVTISCSGSSSNIGNNYVSWYQQLPGTAPKLLIYDNNKRPSGIPDRFSGSKSGTSATLGITGLQTGDEADYYCGTWDWWRKAVIFGGGTKLTVLG | 4.2
anti-CGRP receptor variant 10, yeast-displayed Fab (Fab, V domains shown, also called Variant Ab ID 10) VH: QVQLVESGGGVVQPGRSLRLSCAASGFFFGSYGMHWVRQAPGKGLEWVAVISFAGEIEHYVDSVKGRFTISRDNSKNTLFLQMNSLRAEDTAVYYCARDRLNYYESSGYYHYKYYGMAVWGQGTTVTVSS VL: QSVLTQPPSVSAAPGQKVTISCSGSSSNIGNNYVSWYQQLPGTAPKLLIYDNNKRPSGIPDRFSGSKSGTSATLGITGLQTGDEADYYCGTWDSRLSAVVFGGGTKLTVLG | 3

Quick note, Cyno CGRP Receptor/Blank Cells Specific Binding for anti-CGRP receptor variant 02, yeast-displayed Fab (Fab, V domains shown, also called Variant Ab ID 02) VH: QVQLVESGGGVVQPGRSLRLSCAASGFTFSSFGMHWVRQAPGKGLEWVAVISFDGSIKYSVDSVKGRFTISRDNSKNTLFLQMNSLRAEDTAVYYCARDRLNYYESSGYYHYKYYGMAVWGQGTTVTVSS VL: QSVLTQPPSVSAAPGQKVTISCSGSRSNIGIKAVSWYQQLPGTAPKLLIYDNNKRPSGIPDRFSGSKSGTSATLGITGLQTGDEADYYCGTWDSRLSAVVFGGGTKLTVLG landed at 5.3

// provenance: patent US20220363770A1
